protocol: Cmax in male Sprague-Dawley rat at 5 mg/kg, po measured after 24 hrs by LC-MS/MS analysis
Type: ADME, organism-based
experimentalConditions: in vivo
observationType: Cmax (µM)

smilesString	observationType	obsValue
Cc1cc(-n2ncc(CN3C[C@@H](c4ccc5c(c4C)COC5=O)N[C@@H](C)C3)n2)ncc1C#N	Cmax	3.8

----------
Target chain: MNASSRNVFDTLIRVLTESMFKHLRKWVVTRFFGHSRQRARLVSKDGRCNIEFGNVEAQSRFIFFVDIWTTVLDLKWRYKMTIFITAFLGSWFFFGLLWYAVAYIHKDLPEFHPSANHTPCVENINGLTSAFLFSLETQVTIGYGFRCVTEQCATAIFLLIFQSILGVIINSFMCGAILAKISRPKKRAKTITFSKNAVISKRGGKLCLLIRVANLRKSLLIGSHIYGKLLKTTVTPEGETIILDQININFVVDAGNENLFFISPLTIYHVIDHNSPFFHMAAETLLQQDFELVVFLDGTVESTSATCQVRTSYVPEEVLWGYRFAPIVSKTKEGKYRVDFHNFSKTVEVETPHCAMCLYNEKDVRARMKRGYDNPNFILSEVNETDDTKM
pIC50: −log10 of the molar value.
compounds and their reported pIC50

compound	pIC50
Cc1cc(-n2cc(CN3CC(O)C(c4ccc5c(c4C)COC5=O)C3)cn2)ncc1C#N (stereo not given)	7.52
N#Cc1ccc(-c2ccc3c(c2)CCN(C[C@H](O)c2ccc4c(c2)COC4=O)C3)cc1F	7.49
Cc1cc(-n2cnc(CNC[C@H](O)c3ccc4c(c3C)COC4=O)c2)ncc1C#N	7.34
N#Cc1ccc(-c2ncc3c(n2)CCN(C[C@H](O)c2ccc4c(c2)COC4=O)C3)cc1F	7.13
N#Cc1ccc(-c2ccc3c(n2)CCN(C[C@H](O)c2ccc4c(c2)COC4=O)C3)cc1F	7.21

----------
studySystem: Bile salt export pump (Homo sapiens, UniProt O95342)
Sequence (O95342 whole entry): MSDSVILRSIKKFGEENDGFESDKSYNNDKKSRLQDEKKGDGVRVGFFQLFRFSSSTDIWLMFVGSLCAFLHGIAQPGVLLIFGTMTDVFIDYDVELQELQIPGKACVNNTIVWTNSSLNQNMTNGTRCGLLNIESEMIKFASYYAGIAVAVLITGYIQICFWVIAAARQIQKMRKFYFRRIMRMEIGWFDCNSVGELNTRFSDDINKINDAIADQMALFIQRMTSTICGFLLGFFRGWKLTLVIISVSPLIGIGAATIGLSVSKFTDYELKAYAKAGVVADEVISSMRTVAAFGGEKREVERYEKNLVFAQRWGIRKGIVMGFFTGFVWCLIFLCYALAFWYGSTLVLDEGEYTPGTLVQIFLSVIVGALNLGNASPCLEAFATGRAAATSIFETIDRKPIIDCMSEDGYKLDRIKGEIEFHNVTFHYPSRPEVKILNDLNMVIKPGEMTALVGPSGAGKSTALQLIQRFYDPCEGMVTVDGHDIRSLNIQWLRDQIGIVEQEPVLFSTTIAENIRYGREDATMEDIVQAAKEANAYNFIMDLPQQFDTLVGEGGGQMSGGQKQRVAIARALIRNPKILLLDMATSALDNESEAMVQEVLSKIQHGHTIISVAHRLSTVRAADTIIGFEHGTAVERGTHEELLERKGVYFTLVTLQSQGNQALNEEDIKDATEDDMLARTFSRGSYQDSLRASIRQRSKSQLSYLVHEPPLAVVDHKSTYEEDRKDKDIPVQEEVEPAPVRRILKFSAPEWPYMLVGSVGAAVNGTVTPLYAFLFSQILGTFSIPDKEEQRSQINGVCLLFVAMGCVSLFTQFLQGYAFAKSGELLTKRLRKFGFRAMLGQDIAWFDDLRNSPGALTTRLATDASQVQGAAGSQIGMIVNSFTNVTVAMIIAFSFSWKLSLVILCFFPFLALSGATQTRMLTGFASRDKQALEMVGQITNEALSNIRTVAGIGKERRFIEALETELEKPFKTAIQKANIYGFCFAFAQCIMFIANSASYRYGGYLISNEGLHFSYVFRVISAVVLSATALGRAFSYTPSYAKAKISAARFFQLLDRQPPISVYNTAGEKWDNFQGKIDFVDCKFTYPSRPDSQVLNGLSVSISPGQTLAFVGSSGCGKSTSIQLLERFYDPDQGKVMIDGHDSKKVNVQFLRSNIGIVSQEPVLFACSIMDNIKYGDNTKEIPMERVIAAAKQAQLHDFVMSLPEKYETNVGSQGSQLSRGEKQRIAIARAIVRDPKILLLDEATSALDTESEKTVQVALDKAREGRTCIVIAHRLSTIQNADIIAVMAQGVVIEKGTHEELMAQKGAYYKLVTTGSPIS
pIC50: −log10 of the molar value.

smilesString	pIC50
Cc1cc(-n2ncc(CN3C[C@@H](c4ccc5c(c4C)COC5=O)N[C@@H](C)C3)n2)ncc1C#N	5.15

----------
protocol: Half-life in dog at 2 mg/kg, iv
Assay type: ADME, organism-based, Canis lupus familiaris
experimentalConditions: in vivo
observationType: half-life (h)

smilesString	obsValue
Cc1cc(-n2ncc(CN3C[C@@H](c4ccc5c(c4C)COC5=O)N[C@@H](C)C3)n2)ncc1C#N	3.3

----------
protocol: Oral bioavailability in Cynomolgus monkey at 5 mg/kg
Assay type: ADME, organism-based, Macaca fascicularis
experimentalConditions: in vivo

smilesString	bioavailability [%]
Cc1cc(-n2ncc(CN3C[C@@H](c4ccc5c(c4C)COC5=O)N[C@@H](C)C3)n2)ncc1C#N	69

----------
studySystem: ATP-sensitive inward rectifier potassium channel 1 (Homo sapiens)
Sequence (P48048 whole entry): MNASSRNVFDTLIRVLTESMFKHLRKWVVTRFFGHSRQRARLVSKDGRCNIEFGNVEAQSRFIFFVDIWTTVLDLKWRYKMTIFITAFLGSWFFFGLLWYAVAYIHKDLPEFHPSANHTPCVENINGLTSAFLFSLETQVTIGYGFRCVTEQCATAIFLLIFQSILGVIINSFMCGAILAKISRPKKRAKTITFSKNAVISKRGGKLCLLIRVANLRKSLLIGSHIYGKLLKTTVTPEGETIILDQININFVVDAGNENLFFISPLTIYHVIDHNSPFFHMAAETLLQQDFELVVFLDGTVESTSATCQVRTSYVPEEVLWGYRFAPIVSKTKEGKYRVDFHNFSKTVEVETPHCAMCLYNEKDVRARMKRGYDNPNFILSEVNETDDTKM
pIC50: −log10 of the molar value.

smilesString	pIC50
Cc1c([C@@H](O)CN2CCc3nc(-c4ccc(C#N)c(F)c4)ncc3C2)ccc2c1COC2=O	8.03
Cc1cc(-n2ncc(CNC[C@H](O)c3ccc4c(c3C)COC4=O)n2)ncc1C#N	8.09
N#Cc1ccc(-c2ccc3c(c2)CCN(CCc2ccc4c(c2)COC4=O)C3)cc1F	7.89
N#Cc1ccc(-c2ccc3c(n2)CCN(C[C@H](O)c2ccc4c(c2)COC4=O)C3)cc1F	7.43

----------
molecules and their reported remaining at 10 min, 10 µM
protocol: Metabolic stability in human liver microsomes assessed as parent compound remaining at 10 uM measured after 10 mins in presence of NADPH and GSH by UPLC-MS/MS analysis
Assay type: ADME, Microsome
experimentalConditions: read-out: Stability

molecule	unitOfMeasurement	remaining at 10 min, 10 µM
Cc1cc(-n2cc(CN3CC[C@@H](O)[C@H](c4ccc5c(c4C)COC5=O)C3)cn2)ncc1C#N	%	64
Cc1cc(-n2cc(CN3C[C@@H](c4ccc5c(c4C)COC5=O)OC(C)(C)C3)cn2)ncc1C#N	%	44
Cc1cc(-n2cc(CN3C[C@H](CO)N[C@H](c4ccc5c(c4C)COC5=O)C3)cn2)ncc1C#N	%	76
N#Cc1ccc(-c2ccc3c(c2)CCN(CCc2ccc4c(c2)COC4=O)C3)cc1F	%	72
Cc1cc(-n2cc(CN3CC(=O)N[C@H](c4ccc5c(c4C)COC5=O)C3)cn2)ncc1C#N	%	64
Cc1cc(-n2cc(CN3CCNC(c4ccc5c(c4C)COC5=O)C3C)cn2)ncc1C#N (centres undefined)	%	46
Cc1c([C@@H](O)CN(C)Cc2ccc(-c3ccc(C#N)c(F)c3)nc2)ccc2c1COC2=O	%	40
Cc1cc(-n2cnc(CNC[C@H](O)c3ccc4c(c3C)COC4=O)c2)ncc1C#N	%	97
Cc1cc(-n2ncc(CN3CCN[C@H](c4ccc5c(c4C)COC5=O)C3)n2)ncc1C#N	%	100

----------
protocol: Oral bioavailability in male Sprague-Dawley rat at 5 mg/kg measured after 24 hrs by LC-MS/MS analysis
Type: ADME, organism-based
experimentalConditions: in vivo

smilesString	bioavailability / %
Cc1cc(-n2ncc(CN3C[C@@H](c4ccc5c(c4C)COC5=O)N[C@@H](C)C3)n2)ncc1C#N	76

----------
protocol: AUC (0 to t) in male Sprague-Dawley rat at 5 mg/kg, po measured after 24 hrs by LC-MS/MS analysis
Type: ADME, organism-based
experimentalConditions: in vivo
observationType: AUC(0-t) at 24 h (µM·h)

smilesString	obsValue
Cc1cc(-n2ncc(CN3C[C@@H](c4ccc5c(c4C)COC5=O)N[C@@H](C)C3)n2)ncc1C#N	18

----------
protocol: Volume of distribution at steady state in Cynomolgus monkey at 2 mg/kg, iv
Type: ADME, organism-based, Macaca fascicularis
experimentalConditions: in vivo, read-out: Vdss
observationType: Vd (L/kg)

smilesString	observationType	unitOfMeasurement	obsValue
Cc1cc(-n2ncc(CN3C[C@@H](c4ccc5c(c4C)COC5=O)N[C@@H](C)C3)n2)ncc1C#N	Vd	L/kg	5.1

----------
protocol: MRT in dog at 2 mg/kg, iv
Format: ADME, organism-based, Canis lupus familiaris
experimentalConditions: in vivo

smilesString	MRT (h)
Cc1cc(-n2ncc(CN3C[C@@H](c4ccc5c(c4C)COC5=O)N[C@@H](C)C3)n2)ncc1C#N	1.7

----------
studySystem: Voltage-gated inwardly rectifying potassium channel KCNH2 (Homo sapiens)
Sequence (Q12809 whole entry): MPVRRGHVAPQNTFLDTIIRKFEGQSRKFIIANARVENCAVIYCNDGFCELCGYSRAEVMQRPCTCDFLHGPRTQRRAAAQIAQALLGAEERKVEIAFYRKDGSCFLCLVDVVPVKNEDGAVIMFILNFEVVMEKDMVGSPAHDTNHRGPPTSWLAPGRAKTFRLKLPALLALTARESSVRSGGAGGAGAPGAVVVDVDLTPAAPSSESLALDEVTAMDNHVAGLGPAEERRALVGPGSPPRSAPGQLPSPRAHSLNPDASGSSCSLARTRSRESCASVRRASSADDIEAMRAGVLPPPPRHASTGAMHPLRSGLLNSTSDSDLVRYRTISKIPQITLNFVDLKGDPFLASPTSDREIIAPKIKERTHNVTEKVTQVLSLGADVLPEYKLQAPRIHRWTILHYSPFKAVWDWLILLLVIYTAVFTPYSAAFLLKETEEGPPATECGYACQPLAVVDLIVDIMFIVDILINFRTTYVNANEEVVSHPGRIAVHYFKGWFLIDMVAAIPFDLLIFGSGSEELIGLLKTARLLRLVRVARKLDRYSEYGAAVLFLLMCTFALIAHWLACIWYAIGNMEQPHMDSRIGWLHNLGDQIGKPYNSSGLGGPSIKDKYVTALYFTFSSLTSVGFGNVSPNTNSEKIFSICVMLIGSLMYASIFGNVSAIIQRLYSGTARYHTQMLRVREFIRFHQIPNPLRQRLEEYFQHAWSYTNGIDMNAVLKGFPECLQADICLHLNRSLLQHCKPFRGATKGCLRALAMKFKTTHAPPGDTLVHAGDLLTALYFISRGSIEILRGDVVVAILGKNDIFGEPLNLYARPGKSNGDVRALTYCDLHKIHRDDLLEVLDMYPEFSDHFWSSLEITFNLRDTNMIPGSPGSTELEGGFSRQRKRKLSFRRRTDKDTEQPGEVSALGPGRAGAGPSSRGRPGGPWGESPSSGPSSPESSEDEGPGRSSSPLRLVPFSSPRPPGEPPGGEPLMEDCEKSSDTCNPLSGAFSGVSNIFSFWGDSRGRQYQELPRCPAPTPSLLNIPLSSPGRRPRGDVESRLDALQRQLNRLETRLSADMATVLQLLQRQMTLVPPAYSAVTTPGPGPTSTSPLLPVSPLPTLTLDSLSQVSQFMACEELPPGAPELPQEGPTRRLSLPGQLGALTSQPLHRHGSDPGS
protocol: Inhibition of human ERG expressed in HEK293 cells incubated for 2 to 5 mins by Manual patch clamp assay
molecules and their reported IC50

smilesString	unitOfMeasurement	IC50
N#Cc1ccc(-c2ccc3c(c2)CCN(CCc2ccc4c(c2)COC4=O)C3)cc1F	nM	10
Cc1c([C@@H](O)CN2CCc3nc(-c4ccc(C#N)c(F)c4)ncc3C2)ccc2c1COC2=O	nM	410

----------
studySystem: Cytochrome P450 1A2 (Homo sapiens, UniProt P05177)
Sequence (P05177 whole entry): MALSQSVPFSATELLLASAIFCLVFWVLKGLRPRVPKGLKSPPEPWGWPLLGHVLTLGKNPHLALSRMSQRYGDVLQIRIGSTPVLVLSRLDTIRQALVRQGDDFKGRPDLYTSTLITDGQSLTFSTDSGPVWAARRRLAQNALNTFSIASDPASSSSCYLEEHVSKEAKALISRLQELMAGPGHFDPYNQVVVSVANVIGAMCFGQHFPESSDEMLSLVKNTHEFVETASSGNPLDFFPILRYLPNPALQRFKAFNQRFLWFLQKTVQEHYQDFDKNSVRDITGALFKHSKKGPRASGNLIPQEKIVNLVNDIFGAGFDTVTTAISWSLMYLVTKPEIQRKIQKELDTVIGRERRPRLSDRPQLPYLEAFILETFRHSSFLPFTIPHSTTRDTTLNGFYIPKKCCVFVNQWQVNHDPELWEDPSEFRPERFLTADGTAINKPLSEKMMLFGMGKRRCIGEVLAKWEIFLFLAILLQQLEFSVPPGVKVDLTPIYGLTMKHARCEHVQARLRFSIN

smilesString	IC50
Cc1cc(-n2ncc(CN3C[C@@H](c4ccc5c(c4C)COC5=O)N[C@@H](C)C3)n2)ncc1C#N	> 40 µM

----------
protocol: MRT in Cynomolgus monkey at 2 mg/kg, iv
Format: ADME, organism-based, Macaca fascicularis
experimentalConditions: in vivo

smilesString	unitOfMeasurement	MRT
Cc1cc(-n2ncc(CN3C[C@@H](c4ccc5c(c4C)COC5=O)N[C@@H](C)C3)n2)ncc1C#N	h	3.6

----------
studySystem: Cytochrome P450 3A4 (Homo sapiens, UniProt P08684)
Sequence (P08684 whole entry): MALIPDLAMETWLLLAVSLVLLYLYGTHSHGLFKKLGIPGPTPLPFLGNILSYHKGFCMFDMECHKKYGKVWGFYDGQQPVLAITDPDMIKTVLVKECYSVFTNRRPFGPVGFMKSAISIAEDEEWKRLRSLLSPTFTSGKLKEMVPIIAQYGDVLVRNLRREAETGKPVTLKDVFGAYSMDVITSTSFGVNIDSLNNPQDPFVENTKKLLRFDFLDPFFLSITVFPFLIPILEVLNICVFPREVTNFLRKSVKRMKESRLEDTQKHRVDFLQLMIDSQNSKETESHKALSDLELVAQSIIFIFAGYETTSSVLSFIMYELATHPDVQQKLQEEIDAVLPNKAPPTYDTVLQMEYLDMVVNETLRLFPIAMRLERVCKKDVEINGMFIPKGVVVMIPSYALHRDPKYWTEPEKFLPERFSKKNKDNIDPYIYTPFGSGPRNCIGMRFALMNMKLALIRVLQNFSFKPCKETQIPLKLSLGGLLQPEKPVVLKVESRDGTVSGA
protocol: Inhibition of CYP3A4 in human liver microsomes using midazolam as substrate
Type: ADME, Microsome
pIC50: −log10 of the molar value.
observationType: pIC50

smilesString	observationType	obsValue
Cc1cc(-n2ncc(CN3C[C@@H](c4ccc5c(c4C)COC5=O)N[C@@H](C)C3)n2)ncc1C#N	pIC50	< 4.40

----------
studySystem: UniProt:P08684
protocol: Inhibition of CYP3A4 in human liver microsomes using testosterone as substrate
Assay type: ADME, Microsome

smilesString	IC50
Cc1cc(-n2ncc(CN3C[C@@H](c4ccc5c(c4C)COC5=O)N[C@@H](C)C3)n2)ncc1C#N	> 40 µM

----------
protocol: Metabolic stability in human liver microsomes assessed as parent compound remaining at 10 uM measured after 10 mins in presence of NADPH and GSH by UPLC-MS/MS analysis
Assay type: ADME, Microsome
experimentalConditions: read-out: Stability
compounds and their reported remaining at 10 min, 10 µM

compound	remaining at 10 min, 10 µM, %
Cc1cc(-n2ncc(CN3C[C@@H](c4ccc5c(c4C)COC5=O)N[C@@H](C)C3)n2)ncc1C#N	90
Cc1cc(-c2ccc(CNC[C@H](O)c3ccc4c(c3C)COC4=O)cn2)ncc1C#N	90
Cc1cc(-n2cc(CN3CC(O)CC(c4ccc5c(c4C)COC5=O)C3)cn2)ncc1C#N (stereo not given)	54
Cc1c([C@@H](O)CN2CCc3nc(-c4ccc(C#N)c(F)c4)ncc3C2)ccc2c1COC2=O	62
Cc1cc(-c2ncc(CNC[C@H](O)c3ccc4c(c3C)COC4=O)s2)ncc1C#N	85
